# TEST NAME: in vitro
# CONDITIONS USED: male, CD-1, mouse, microsomes, pH 7.4
PROPERTY LABEL: half-life at 100 µM (min)

CCOc1ccc(NC(C)=O)cc1 [Phenacetin] = 35.4

----------
# TEST NAME: Microsome stability assay
# CONDITIONS USED: male, CD-1, mouse, microsomes, pH 7.4
PROPERTY LABEL: half-life at 100 µM (min)

CCCCCOc1ccc(-c2nc(N)[nH]c2C(F)(F)F)cc1 [Compound 12j] = 61.3
CCCCCCc1ccc(-c2nc(N)[nH]c2C(F)(F)F)cc1 [Compound 12g] = 58.7

----------
# TEST NAME: in vitro
# CONDITIONS USED: mouse, plasma, pH 7.4
PROPERTY LABEL: half-life at 100 µM

CC(C)NCC(O)COc1cccc2ccccc12 (stereo not drawn) [Propanolol, reference compound] = 20.6 min
CCCCCOc1ccc(-c2nc(N)[nH]c2C(F)(F)F)cc1 [Compound 12j] = 288 min
CCCCCCc1ccc(-c2nc(N)[nH]c2C(F)(F)F)cc1 [Compound 12g] = 266 min
